# system: Human IP6K1 (Homo sapiens, UniProt Q92551)
# Construct: GST (N, cleaved yes); made in house; host or cells: C43 E. coli, pGEX-6P-2
# Sequence (Q92551 whole entry): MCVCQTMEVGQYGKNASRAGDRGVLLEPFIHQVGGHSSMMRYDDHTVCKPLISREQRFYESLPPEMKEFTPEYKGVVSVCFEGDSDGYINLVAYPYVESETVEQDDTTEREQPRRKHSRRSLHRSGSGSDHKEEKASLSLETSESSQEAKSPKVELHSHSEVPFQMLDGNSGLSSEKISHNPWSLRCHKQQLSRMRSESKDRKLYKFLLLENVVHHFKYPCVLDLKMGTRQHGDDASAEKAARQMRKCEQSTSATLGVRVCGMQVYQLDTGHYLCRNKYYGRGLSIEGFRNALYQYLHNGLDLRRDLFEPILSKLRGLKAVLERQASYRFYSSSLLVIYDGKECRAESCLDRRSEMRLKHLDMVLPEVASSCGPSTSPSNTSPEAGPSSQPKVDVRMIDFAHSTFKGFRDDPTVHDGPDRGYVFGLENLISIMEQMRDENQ
# protocol-summary: IP6K1 high-throughput screen of the Sigma LOPAC (ADP-Glo Max, single point);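 note: final compound concentration 10µM in 5% DMSO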
# Type: biochemical
# reported-conditions: LOPAC single-point screen, Z-score against plate average and StDev
Where a name gives a salt, the structure may show the parent alone.
reported-metric: Z-score
Please give only the number in your answer, with no unit.

I have this molecule here, CC(=O)OCC(=O)[C@@]1(O)CC[C@H]2[C@@H]3CCC4=CC(=O)CC[C@]4(C)[C@H]3C(=O)C[C@@]21C [Cortisone 21-acetate] , and I need its recorded Z-score.
0.3288

I have this molecule here, NC(=NCc1ccccc1)NC(=O)c1nc(Cl)c(N)nc1N [Benzamil hydrochloride] , and I need its recorded Z-score.
0.1946

Query molecule follows.
I have this molecule here, C[C@]12CC[C@H](OS(=O)(=O)[O-])CC1=CC[C@@H]1[C@@H]2CC[C@]2(C)C(=O)CC[C@@H]12.[Na+] [Dehydroisoandrosterone 3-sulfate sodium] , and I need its recorded Z-score.
0.08752

====

# system: Human IP6K1 (Homo sapiens, UniProt Q92551)
# Construct: GST (N, cleaved yes); made in house; host or cells: C43 E. coli, pGEX-6P-2
# protocol-summary: IP6K1 high-throughput screen of the Sigma LOPAC (ADP-Glo Max, single point);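 note: final compound concentration 10µM in 5% DMSO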
# Assay type: biochemical
# reported-conditions: LOPAC single-point screen, Z-score against plate average and StDev
reported-metric: Z-score
Please give only the number in your answer, with no unit.

Some solved entries appear below for comparison.
I have this compound here, Cc1[nH]c(=O)c(C#N)cc1-c1ccncc1 , and I need its recorded Z-score.
-0.08914

I have this compound here, COc1cc(C=C(C#N)C#N)cc(O)c1O , and I need its recorded Z-score.
-0.01745

I have this compound here, Cl.NCCCCCCNS(=O)(=O)c1cccc2c(Cl)cccc12 [W-7 hydrochloride] , and I need its recorded Z-score.
0.01161

Query compound follows.
I have this compound here, CC(C(O)c1ccc(O)cc1)N1CCC(Cc2ccccc2)CC1.CC(C(O)c1ccc(O)cc1)N1CCC(Cc2ccccc2)CC1.O=C(O)C(O)C(O)C(=O)O (stereo not shown) [Ifenprodil tartrate] , and I need its recorded Z-score.
0.3193

====

Property: Raw Signal; scope: individual molecules
# system: Human IP6K1 (Homo sapiens)
# Construct: GST (N, cleaved yes); made in house; host or cells: C43 E. coli, pGEX-6P-2
# protocol-summary: IP6K1 high-throughput screen of the Sigma LOPAC (ADP-Glo Max, single point);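 note: final compound concentration 10µM in 5% DMSO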
# Assay type: biochemical
# reported-conditions: Sigma LOPAC single-point screen, ADP-Glo Max raw signal per well
Please give only the number in your answer, with no unit.

Some solved entries appear below for comparison.
I have this molecule here, Cl.N[C@@H](Cc1cnc[nH]1)C(=O)O [L-Histidine hydrochloride] , and I need its recorded Raw Signal.
61451

I have this molecule here, COCCc1ccc(OCC(O)CNC(C)C)cc1.O=C(O)C(O)C(O)C(=O)O (racemic) [(±)-Metoprolol (+)-tartrate] , and I need its recorded Raw Signal.
61286

I have this molecule here, O=c1onc2cnc3ccccc3n12 [ODQ] , and I need its recorded Raw Signal.
60819

Further cases:
I have this molecule here, OCCN1CCN(CCCN2c3ccccc3Sc3ccc(Cl)cc32)CC1 [Perphenazine] , and I need its recorded Raw Signal.
57078

I have this molecule here, CCOC(=O)C1=C[C@]2(CC)CCCN3CCc4c(n1c1ccccc41)[C@@H]32 [Vinpocetine] , and I need its recorded Raw Signal.
59958

I have this molecule here, NC(=O)c1cnccn1 [Pyrazinecarboxamide] , and I need its recorded Raw Signal.
58526

I have this molecule here, COc1cccc(OC)c1OCCNCC1COc2ccccc2O1.Cl (stereo not drawn) [WB-4101 hydrochloride] , and I need its recorded Raw Signal.
58268

I have this molecule here, C[C@H](O)C(=O)C1=Nc2c(nc(N)[nH]c2=O)NC1 [Sepiapterin] , and I need its recorded Raw Signal.
58753

I have this molecule here, CCCN(CCC)CCc1c[nH]c2ccc(C(N)=O)cc12.O=C(O)/C=C\C(=O)O , and I need its recorded Raw Signal.
60214

====

# system: Human IP6K1 (Homo sapiens, UniProt Q92551)
# Construct: GST (N, cleaved yes); made in house; host or cells: C43 E. coli, pGEX-6P-2
# protocol-summary: IP6K1 high-throughput screen of the Sigma LOPAC (ADP-Glo Max, single point);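 note: final compound concentration 10µM in 5% DMSO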
# Format: biochemical
# reported-conditions: Sigma LOPAC single-point screen, ADP-Glo Max raw signal per well
Structures can show the parent of a compound that is named as a salt.
Property: Raw Signal; scope: individual compounds

Some solved entries appear below for comparison.
I have this compound here, Brc1ccc([C@H]2CN3CCSC3=N2)cc1.O=C(O)C(=O)O [S(-)-p-Bromotetramisole oxalate] , and I need its recorded Raw Signal.
61891

I have this compound here, Cn1ccnc1 , and I need its recorded Raw Signal.
56921

I have this compound here, C#C[C@]1(O)CC[C@H]2[C@@H]3CCC4=Cc5nc6nc7ccccc7n6cc5C[C@]4(C)[C@H]3CC[C@@]21C , and I need its recorded Raw Signal.
58080

I have this compound here, Cl.O=C(O)C1=CCCN(CCON=C(c2ccccc2)c2ccccc2)C1 [NO-711 hydrochloride] , and I need its recorded Raw Signal.
58704

I have this compound here, C[C@H](Cc1ccccc1)Nc1ncnc2c1ncn2[C@@H]1O[C@H](CO)[C@@H](O)[C@H]1O [R(-)-N6-(2-Phenylisopropyl)adenosine] , and I need its recorded Raw Signal.
58463

I have this compound here, CC#C[C@]1(O)CC[C@H]2[C@@H]3CCC4=CC(=O)CCC4=C3[C@@H](c3ccc(N(C)C)cc3)C[C@@]21C , and I need its recorded Raw Signal.
60991

I have this compound here, COC(=O)Nc1nc2ccc(C(=O)c3cccs3)cc2[nH]1 , and I need its recorded Raw Signal.
59128

I have this compound here, Oc1ccc(C2CNCCc3c2cc(O)c(O)c3Cl)cc1 (centres unmarked) [Fenoldopam bromide] , and I need its recorded Raw Signal.
59808

Further cases:
I have this compound here, CC(CN1c2ccccc2Sc2ccccc21)N(C)C (centres unmarked) [Promethazine hydrochloride] , and I need its recorded Raw Signal.
57662

I have this compound here, CN(C)CCC=C1c2ccccc2C=Cc2ccccc21 [Cyclobenzaprine hydrochloride] , and I need its recorded Raw Signal.
63136

I have this compound here, NC(=O)C1=CN([C@@H]2O[C@H](COP(=O)([O-])OP(=O)([O-])OC[C@H]3O[C@@H](n4cnc5c(N)ncnc54)[C@H](OP(=O)([O-])[O-])[C@@H]3O)[C@@H](O)[C@H]2O)C=CC1.[Na+].[Na+].[Na+].[Na+] [NADPH tetrasodium] , and I need its recorded Raw Signal.
57869

I have this compound here, CC(=O)[C@H]1CC[C@H]2[C@@H]3CC[C@H]4C[C@H](O)CC[C@]4(C)[C@H]3C(=O)C[C@]12C , and I need its recorded Raw Signal.
56964

====

# system: Human IP6K1 (Homo sapiens)
# Construct: GST (N, cleaved yes); made in house; host or cells: C43 E. coli, pGEX-6P-2
# protocol-summary: IP6K1 high-throughput screen of the Sigma LOPAC (ADP-Glo Max, single point);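 note: final compound concentration 10µM in 5% DMSO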
# Type: biochemical
Counter-ions that a name gives are not always drawn.
reported-metric: Z-score
Please give only the number in your answer, with no unit.

Some solved entries appear below for comparison.
# returns recorded Z-score (system: Human IP6K1 (Homo sapiens)) for Brc1c(NC2=NCCN2)ccc2nccnc12 [UK 14,304]
-0.4041

# returns recorded Z-score (system: Human IP6K1 (Homo sapiens)) for CN1CCCC1c1cccnc1.O=C(O)C(O)C(O)C(=O)O (single isomer, unassigned; (-)) [(-)-Nicotine hydrogen tartrate salt]
1.692

# returns recorded Z-score (system: Human IP6K1 (Homo sapiens)) for CN1CCCC1c1cccnc1.Cc1ccc(C(=O)OC(C(=O)O)C(OC(=O)c2ccc(C)cc2)C(=O)O)cc1 (stereo not drawn) [(+)-Nicotine (+)-di-p-toluoyl tartrate]
-0.2467

# returns recorded Z-score (system: Human IP6K1 (Homo sapiens)) for CNCCC(Oc1ccccc1OC)c1ccccc1 (stereo not drawn) [Nisoxetine hydrochloride]
0.2153

# returns recorded Z-score (system: Human IP6K1 (Homo sapiens)) for O=C(O)c1cc2cc(F)ccc2[nH]1 [5-Fluoroindole-2-carboxylic acid]
0.5609

Query compound follows.
# returns recorded Z-score (system: Human IP6K1 (Homo sapiens)) for CCN(CC)CCCC(C)Nc1ccnc2cc(Cl)ccc12 (stereo not drawn) [Chloroquine diphosphate]
-0.3451

====

# system: Human IP6K1 (Homo sapiens, UniProt Q92551)
# Construct: GST (N, cleaved yes); made in house; host or cells: C43 E. coli, pGEX-6P-2
# protocol-summary: IP6K1 high-throughput screen of the Sigma LOPAC (ADP-Glo Max, single point);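 note: final compound concentration 10µM in 5% DMSO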
# Assay type: biochemical
# reported-conditions: LOPAC single-point screen, ADP-Glo Max raw signal per well
Where a name gives a salt, the structure may show the parent alone.
Property: Raw Signal; scope: individual compounds

Some solved entries appear below for comparison.
I have this compound here, COc1cc(NS(C)(=O)=O)ccc1Nc1c2ccccc2nc2ccccc12 [Amsacrine hydrochloride] , and I need its recorded Raw Signal.
58568

I have this compound here, CC(N/C(=N\C#N)Nc1ccncc1)C(C)(C)C (stereo not shown) , and I need its recorded Raw Signal.
55394

I have this compound here, O=C(O)CCCc1ccc(N(CCCl)CCCl)cc1 , and I need its recorded Raw Signal.
57590

Query compound follows.
I have this compound here, C[C@H](Cc1ccc2c(c1)OC(C(=O)[O-])(C(=O)[O-])O2)NC[C@H](O)c1cccc(Cl)c1.[Na+].[Na+] , and I need its recorded Raw Signal.
56247

FYI, the data here is from paper PMC5706701.
